assay: Parallel artificial membrane permeability assay for the blood–brain barrier (PAMPA-BBB); settings: compound within AerExt donor solution; 37 °C, 4 h, PBS pH 7.4; n.q. = not quantified in the acceptor plate
property_label: AerExt log Pe

{"columns": ["compound", "recorded_measurement"],
 "data": [
  ["C[C@@H]1CCC=C2CC[C@@H](C(C)(C)O)C[C@]21C", "−5.35"],
  ["O=C(O)c1cccc(O)c1O [2,3-dihydroxybenzoic acid]", "n.q."],
  ["CC(=O)OC(C)(C)[C@@H]1CC[C@H](C)C2=C(C1)[C@@H](C)CC2 [Guaiol acetate]", "n.q."]
]}

* * *

system: HBMEC cells; experiment: Blood–brain barrier transport study in HBMEC Transwell monolayer; conditions: AerExt 40 µg mL^−1 apical; 2 h; n.q. = not quantified in the basolateral compartment
Please mark 1 if the recorded AerExt Te (%) ± SD 2 h is equal to or greater than 6%, and 0 if it falls below.

{"columns": ["molecule", "system_name", "label_value"],
 "data": [
  ["COc1cc(/C=C/C(=O)O)ccc1O", "HBMEC cells", 0],
  ["O=C(O)c1cccc(O)c1O [2,3-dihydroxybenzoic acid]", "HBMEC cells", 1],
  ["COc1cc2ccc(=O)oc2cc1O [7-hydroxy-6-methoxycoumarin]", "HBMEC cells", 0],
  ["CC1(C)C[C@H](O)C[C@@]2(C)OC(=O)C=C12 [Loliolide]", "HBMEC cells", 1]
]}

Is reported AerExt Te (%) ± SD 2 h greater than or equal to 6% here: O=Cc1ccc(O)cc1 [4-hydroxybenzaldehyde] 1

Next molecule: `C=C(C)[C@@H]1CC[C@@]2(C)CCC(=O)C(C)=C2C1` 1

And `c1ccc2c(c1)[nH]c1cnccc12` ? 0

* * *

tested on: HBMEC cells; assay: Blood–brain barrier transport study in HBMEC Transwell monolayer; conditions: AerExt 40 µg mL^−1 apical; 4 h; n.q. = not quantified in the basolateral compartment
property_label: AerExt Te (%) ± SD 4 h

{"columns": ["compound", "system_name", "property_label", "recorded_measurement"],
 "data": [
  ["CC1=C[C@H]2[C@@H](CC1=O)[C@H](C)C[C@H](O)[C@H]2C(C)C [8-hydroxyageraphorone]", "HBMEC cells", "AerExt Te (%) ± SD 4 h", "n.q."],
  ["COc1ccc(C=O)c(O)c1", "HBMEC cells", "AerExt Te (%) ± SD 4 h", "n.q."],
  ["O=C(O)/C=C/c1ccc(O)cc1", "HBMEC cells", "AerExt Te (%) ± SD 4 h", "n.q."]
]}

FYI, the data here is from paper PMC12386606.
